Reported pIC50, UniProt P24666.
Sequence (P24666 whole entry): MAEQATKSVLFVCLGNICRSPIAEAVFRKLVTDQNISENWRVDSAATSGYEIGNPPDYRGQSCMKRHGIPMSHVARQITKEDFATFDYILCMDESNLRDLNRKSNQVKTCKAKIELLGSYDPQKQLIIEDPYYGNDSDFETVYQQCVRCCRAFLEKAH
Hey, just a heads up that pIC50 is the negative log base 10 of the concentration in molar.

Below: 5 compounds and their reported pIC50.
Cc1c(Br)cc(NC(=O)NS(=O)(=O)O)cc1Br ... 8.40
O=C(CS(=O)(=O)O)Nc1cc(Cl)cc(Cl)c1 ... 5.07
O=C(Nc1nccs1)NS(=O)(=O)O ... 7.31
O=C(CS(=O)(=O)O)Nc1cc(C(F)(F)F)cc(C(F)(F)F)c1 ... 5.27
O=C(CS(=O)(=O)O)Nc1cc(Br)cc(Br)c1 ... 5.22

q: Need pIC50 of O=C(CS(=O)(=O)O)Nc1cc(Br)cc([N+](=O)[O-])c1 , thanks.
a: 5.47

Entry source: ChEMBL document CHEMBL5214960
